# target: panel of 255 wild-type kinases (Homo sapiens, UniProt Q96PF2)
# Sequence (Q96PF2 whole entry): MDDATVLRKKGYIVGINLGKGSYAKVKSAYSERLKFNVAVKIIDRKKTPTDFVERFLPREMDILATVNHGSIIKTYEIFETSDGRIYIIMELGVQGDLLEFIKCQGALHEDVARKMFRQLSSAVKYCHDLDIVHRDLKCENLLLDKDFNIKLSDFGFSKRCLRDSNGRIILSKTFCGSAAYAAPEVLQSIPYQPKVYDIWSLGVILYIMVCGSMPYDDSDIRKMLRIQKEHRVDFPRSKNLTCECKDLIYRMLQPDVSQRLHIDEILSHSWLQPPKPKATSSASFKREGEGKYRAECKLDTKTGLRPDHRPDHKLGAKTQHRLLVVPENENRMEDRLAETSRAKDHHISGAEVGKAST
# test.method.notes: Kinase panel profiling at 1 µmol/L (MSA or IMAP), percentage inhibition
# Type: biochemical
# measurement.conditions: kinase TSSK2; 1 µmol/L single concentration; read-out: %-inhibition at 1 µmol/L, TSSK2
readout.type: inhibition at 1 µM (%)

C[C@H](Nc1ncnc2nc[nH]c12)c1cc2cccc(Cl)c2c(=O)n1-c1ccccc1 [duvelisib] ... -1.37
CCn1c(=O)c(-c2cc(NC(=O)Nc3ccccc3)c(F)cc2Br)cc2cnc(NC)cc21 [ripretinib] ... -3.73
C=CC(=O)N1CCC([C@@H]2CCNc3c(C(N)=O)c(-c4ccc(Oc5ccccc5)cc4)nn32)CC1 [zanubrutinib] ... 0.571
CCc1nc(C(N)=O)c(Nc2ccc(N3CCC(N4CCN(C)CC4)CC3)c(OC)c2)nc1NC1CCOCC1 [gilteritinib] ... 55
Cc1cc(Nc2ncnc3ccc(NC4=NC(C)(C)CO4)cc23)ccc1Oc1ccn2ncnc2c1 [tucatinib] ... -0.922
FC(F)(F)c1ccc(CNc2ccc(Cc3c[nH]c4ncc(Cl)cc34)cn2)cn1 [pexidartinib] ... -0.308
Cn1cc(-c2cc3c(N4CCN(c5ncc([C@@](C)(N)c6ccc(F)cc6)cn5)CC4)ncnn3c2)cn1 [avapritinib] ... 1.35
Cc1nc(NC(=O)N2CCC[C@H]2C(N)=O)sc1-c1ccnc(C(C)(C)C(F)(F)F)c1 [alpelisib] ... -6

###

# target: panel of 255 wild-type kinases (Homo sapiens)
# test.method.notes: Kinase panel profiling at 1 µmol/L (MSA or IMAP), percentage inhibition
# Format: biochemical
# measurement.conditions: kinase KIT; 1 µmol/L single concentration; read-out: %-inhibition at 1 µmol/L, KIT
Record true whenever inhibition at 1 µM is at 20% or higher; record false when lower.

C[C@H]1Oc2cc(cnc2N)-c2c(nn(C)c2C#N)CN(C)C(=O)c2ccc(F)cc21 [lorlatinib] ... false
Cn1cc(-c2cc3c(N4CCN(c5ncc([C@@](C)(N)c6ccc(F)cc6)cn5)CC4)ncnn3c2)cn1 [avapritinib] ... true
CCc1nc(C(N)=O)c(Nc2ccc(N3CCC(N4CCN(C)CC4)CC3)c(OC)c2)nc1NC1CCOCC1 [gilteritinib] ... true
COc1cc2ncnc(Nc3ccc(F)c(Cl)c3)c2cc1NC(=O)/C=C/CN1CCCCC1 [dacomitinib] ... false
Cc1nc(NC(=O)N2CCC[C@H]2C(N)=O)sc1-c1ccnc(C(C)(C)C(F)(F)F)c1 [alpelisib] ... false
Cc1cc(Nc2ncnc3ccc(NC4=NC(C)(C)CO4)cc23)ccc1Oc1ccn2ncnc2c1 [tucatinib] ... false
O=C(Nc1cnn2ccc(N3CCC[C@@H]3c3cc(F)ccc3F)nc12)N1CC[C@H](O)C1 [larotrectinib] ... false
COc1ccc(CN2C3CC2CN(c2ccc(-c4cc(OCC(C)(C)O)cn5ncc(C#N)c45)cn2)C3)cn1 [selpercatinib] ... true
Cn1cnc2c(F)c(Nc3ccc(Br)cc3F)c(C(=O)NOCCO)cc21 [binimetinib] ... false
COC(=O)N[C@@H](C)CNc1nccc(-c2cn(C(C)C)nc2-c2cc(Cl)cc(NS(C)(=O)=O)c2F)n1 [encorafenib] ... false
CO[C@]1(C(=O)N[C@@H](C)c2ccc(-n3cc(F)cn3)nc2)CC[C@H](c2nc(C)cc(Nc3cc(C)[nH]n3)n2)CC1 [pralsetinib] ... true
C[C@H](Nc1ncnc2nc[nH]c12)c1cc2cccc(Cl)c2c(=O)n1-c1ccccc1 [duvelisib] ... false
CN1CCN(c2ccc(C(=O)Nc3n[nH]c4ccc(Cc5cc(F)cc(F)c5)cc34)c(NC3CCOCC3)c2)CC1 [entrectinib] ... true
C=CC(=O)N1CCC([C@@H]2CCNc3c(C(N)=O)c(-c4ccc(Oc5ccccc5)cc4)nn32)CC1 [zanubrutinib] ... false
FC(F)(F)c1ccc(CNc2ccc(Cc3c[nH]c4ncc(Cl)cc34)cn2)cn1 [pexidartinib] ... true
Cn1cnc2c(F)c(Nc3ccc(Br)cc3Cl)c(C(=O)NOCCO)cc21 [selumetinib] ... false

###

Each record here notes measured inhibition at 1 µM.
# target: panel of 255 wild-type kinases (Homo sapiens, UniProt O75116)
# Sequence (O75116 whole entry): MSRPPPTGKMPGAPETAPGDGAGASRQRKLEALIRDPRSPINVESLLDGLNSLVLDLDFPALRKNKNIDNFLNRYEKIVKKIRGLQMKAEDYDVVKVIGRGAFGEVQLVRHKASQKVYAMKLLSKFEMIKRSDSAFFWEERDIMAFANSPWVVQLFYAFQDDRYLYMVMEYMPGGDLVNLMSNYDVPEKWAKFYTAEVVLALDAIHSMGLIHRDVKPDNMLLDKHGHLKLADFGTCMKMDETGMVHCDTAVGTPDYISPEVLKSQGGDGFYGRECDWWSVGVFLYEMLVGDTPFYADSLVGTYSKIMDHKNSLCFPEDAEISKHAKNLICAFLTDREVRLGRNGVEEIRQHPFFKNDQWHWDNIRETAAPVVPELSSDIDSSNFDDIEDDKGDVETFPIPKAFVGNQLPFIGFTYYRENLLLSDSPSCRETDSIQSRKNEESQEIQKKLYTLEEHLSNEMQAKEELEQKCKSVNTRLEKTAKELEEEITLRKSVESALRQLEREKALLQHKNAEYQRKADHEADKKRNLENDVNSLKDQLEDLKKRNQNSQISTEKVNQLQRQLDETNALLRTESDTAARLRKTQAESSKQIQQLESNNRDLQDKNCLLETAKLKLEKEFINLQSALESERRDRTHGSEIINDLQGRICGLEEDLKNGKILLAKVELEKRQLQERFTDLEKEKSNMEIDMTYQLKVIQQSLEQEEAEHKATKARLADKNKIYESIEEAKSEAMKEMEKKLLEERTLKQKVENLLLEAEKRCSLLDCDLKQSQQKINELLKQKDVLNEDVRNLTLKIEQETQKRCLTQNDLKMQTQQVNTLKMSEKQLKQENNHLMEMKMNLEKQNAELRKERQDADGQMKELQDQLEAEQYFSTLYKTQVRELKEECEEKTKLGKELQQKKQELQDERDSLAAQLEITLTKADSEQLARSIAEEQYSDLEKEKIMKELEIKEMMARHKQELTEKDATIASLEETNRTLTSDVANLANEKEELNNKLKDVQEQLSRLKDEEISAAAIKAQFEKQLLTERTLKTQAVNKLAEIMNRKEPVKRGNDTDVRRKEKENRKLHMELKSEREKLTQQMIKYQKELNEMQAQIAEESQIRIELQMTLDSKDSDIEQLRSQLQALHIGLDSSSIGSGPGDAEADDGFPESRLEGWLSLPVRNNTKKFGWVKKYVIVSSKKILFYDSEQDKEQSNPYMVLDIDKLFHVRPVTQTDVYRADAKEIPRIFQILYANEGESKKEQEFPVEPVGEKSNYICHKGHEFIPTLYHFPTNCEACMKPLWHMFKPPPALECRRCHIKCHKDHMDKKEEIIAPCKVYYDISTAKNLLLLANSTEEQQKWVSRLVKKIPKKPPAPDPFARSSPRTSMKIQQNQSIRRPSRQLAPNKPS
# test.method.notes: Kinase panel profiling at 1 µmol/L (MSA or IMAP), percentage inhibition
# Assay type: biochemical
# measurement.conditions: kinase ROCK2; 1 µmol/L single concentration; read-out: %-inhibition at 1 µmol/L, ROCK2
readout.type: inhibition at 1 µM (%)

Cn1cc(-c2cc3c(N4CCN(c5ncc([C@@](C)(N)c6ccc(F)cc6)cn5)CC4)ncnn3c2)cn1 ... 11
C[C@H](Nc1ncnc2nc[nH]c12)c1cc2cccc(Cl)c2c(=O)n1-c1ccccc1 ... -0.18
Cn1cnc2c(F)c(Nc3ccc(Br)cc3Cl)c(C(=O)NOCCO)cc21 ... 2.83
Cc1nc(NC(=O)N2CCC[C@H]2C(N)=O)sc1-c1ccnc(C(C)(C)C(F)(F)F)c1 ... 0.528
CCn1c(=O)c(-c2cc(NC(=O)Nc3ccccc3)c(F)cc2Br)cc2cnc(NC)cc21 ... -1.2
Cc1cc(Nc2ncnc3ccc(NC4=NC(C)(C)CO4)cc23)ccc1Oc1ccn2ncnc2c1 ... -1.34
CCc1nc(C(N)=O)c(Nc2ccc(N3CCC(N4CCN(C)CC4)CC3)c(OC)c2)nc1NC1CCOCC1 ... 66
CN1CCN(c2ccc(C(=O)Nc3n[nH]c4ccc(Cc5cc(F)cc(F)c5)cc34)c(NC3CCOCC3)c2)CC1 ... 7
FC(F)(F)c1ccc(CNc2ccc(Cc3c[nH]c4ncc(Cl)cc34)cn2)cn1 ... 0.233
CCN1C(=O)N(c2c(F)c(OC)cc(OC)c2F)Cc2cnc3[nH]c(CN4CCOCC4)cc3c21 ... -5
C[C@H]1Oc2cc(cnc2N)-c2c(nn(C)c2C#N)CN(C)C(=O)c2ccc(F)cc21 ... 3.28
Cn1cnc2c(F)c(Nc3ccc(Br)cc3F)c(C(=O)NOCCO)cc21 ... -4
CCN1CCN(c2ccc(Nc3cc(N(C)C(=O)Nc4c(Cl)c(OC)cc(OC)c4Cl)ncn3)cc2)CC1 ... -0.775
COC(=O)N[C@@H](C)CNc1nccc(-c2cn(C(C)C)nc2-c2cc(Cl)cc(NS(C)(=O)=O)c2F)n1 ... 1.32
C=CC(=O)N1CCC([C@@H]2CCNc3c(C(N)=O)c(-c4ccc(Oc5ccccc5)cc4)nn32)CC1 ... -3.24
COc1cc2ncnc(Nc3ccc(F)c(Cl)c3)c2cc1NC(=O)/C=C/CN1CCCCC1 ... -4.35

###

# target: panel of 255 wild-type kinases (Homo sapiens, UniProt Q9Y5S2)
# Sequence (Q9Y5S2 whole entry): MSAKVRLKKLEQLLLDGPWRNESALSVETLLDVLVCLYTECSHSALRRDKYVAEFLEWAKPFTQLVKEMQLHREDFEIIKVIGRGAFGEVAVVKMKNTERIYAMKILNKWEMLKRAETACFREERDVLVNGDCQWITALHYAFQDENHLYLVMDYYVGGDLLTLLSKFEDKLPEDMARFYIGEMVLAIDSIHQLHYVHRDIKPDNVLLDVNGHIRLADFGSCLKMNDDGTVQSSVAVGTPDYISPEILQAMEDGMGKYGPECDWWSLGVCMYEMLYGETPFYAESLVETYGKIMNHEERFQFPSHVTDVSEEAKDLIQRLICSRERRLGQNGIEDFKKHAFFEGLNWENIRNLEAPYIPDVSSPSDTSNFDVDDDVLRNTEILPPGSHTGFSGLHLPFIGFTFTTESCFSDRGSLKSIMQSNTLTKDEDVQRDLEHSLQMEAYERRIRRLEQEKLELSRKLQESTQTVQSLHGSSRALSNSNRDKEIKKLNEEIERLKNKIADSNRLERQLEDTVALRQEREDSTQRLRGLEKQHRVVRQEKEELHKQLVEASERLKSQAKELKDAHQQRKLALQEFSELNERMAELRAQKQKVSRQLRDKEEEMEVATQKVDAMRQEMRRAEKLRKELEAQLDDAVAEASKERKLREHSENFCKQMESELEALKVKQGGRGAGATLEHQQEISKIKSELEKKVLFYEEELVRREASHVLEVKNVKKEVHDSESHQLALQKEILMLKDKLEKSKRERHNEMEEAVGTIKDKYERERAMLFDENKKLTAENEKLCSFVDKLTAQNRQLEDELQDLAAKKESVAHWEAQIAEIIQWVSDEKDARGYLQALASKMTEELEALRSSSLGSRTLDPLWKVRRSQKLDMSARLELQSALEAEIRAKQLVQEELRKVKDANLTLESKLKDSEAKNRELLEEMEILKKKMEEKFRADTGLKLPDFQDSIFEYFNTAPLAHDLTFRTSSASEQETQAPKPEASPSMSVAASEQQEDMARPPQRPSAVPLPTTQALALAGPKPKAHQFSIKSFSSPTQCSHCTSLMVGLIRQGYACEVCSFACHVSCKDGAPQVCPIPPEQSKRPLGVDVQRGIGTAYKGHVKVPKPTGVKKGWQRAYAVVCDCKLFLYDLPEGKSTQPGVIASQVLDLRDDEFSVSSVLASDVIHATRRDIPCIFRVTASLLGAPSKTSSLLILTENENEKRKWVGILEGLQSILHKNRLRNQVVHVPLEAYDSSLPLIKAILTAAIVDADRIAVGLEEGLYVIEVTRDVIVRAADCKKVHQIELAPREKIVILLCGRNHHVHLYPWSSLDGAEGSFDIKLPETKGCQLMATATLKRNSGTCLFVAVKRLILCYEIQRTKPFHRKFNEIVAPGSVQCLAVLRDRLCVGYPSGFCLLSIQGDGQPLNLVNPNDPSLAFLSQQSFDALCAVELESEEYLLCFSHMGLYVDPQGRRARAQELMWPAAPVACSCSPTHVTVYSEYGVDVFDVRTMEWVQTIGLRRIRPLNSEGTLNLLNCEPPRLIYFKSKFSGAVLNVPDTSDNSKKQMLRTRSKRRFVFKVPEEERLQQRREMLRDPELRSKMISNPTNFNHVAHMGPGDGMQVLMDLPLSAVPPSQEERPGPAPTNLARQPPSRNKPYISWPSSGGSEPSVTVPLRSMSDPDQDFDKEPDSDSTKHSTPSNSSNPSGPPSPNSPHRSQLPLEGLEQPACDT
# test.method.notes: Kinase panel profiling at 1 µmol/L (MSA or IMAP), percentage inhibition
# Assay type: biochemical
# measurement.conditions: MRCKβ; 1 µmol/L single concentration; read-out: %-inhibition, MRCKβ
readout.type: inhibition at 1 µM (%)

COc1ccc(CN2C3CC2CN(c2ccc(-c4cc(OCC(C)(C)O)cn5ncc(C#N)c45)cn2)C3)cn1 ... -3.65
FC(F)(F)c1ccc(CNc2ccc(Cc3c[nH]c4ncc(Cl)cc34)cn2)cn1 ... 2.43
CCn1c(=O)c(-c2cc(NC(=O)Nc3ccccc3)c(F)cc2Br)cc2cnc(NC)cc21 ... -1.41

###

# System: 134 cancer cell lines
# test.method.notes: Cell viability assay (ATPlite, 72 hours), IC50 on cancer cell line panel
# measurement.conditions: Homo sapiens, MG-63, read-out: IC50 in cell proliferation assay, MG-63 cell line
pIC50: −log10 of the molar value.
readout.type: pIC50

CO[C@]1(C(=O)N[C@@H](C)c2ccc(-n3cc(F)cn3)nc2)CC[C@H](c2nc(C)cc(Nc3cc(C)[nH]n3)n2)CC1 ... 5.73
O=C(c1ccc(F)c(F)c1Nc1ccc(I)cc1F)N1CC(O)([C@@H]2CCCCN2)C1 ... 6.38
C[C@H](Nc1ncnc2nc[nH]c12)c1cc2cccc(Cl)c2c(=O)n1-c1ccccc1 ... 5.11
COc1cc2ncnc(Nc3ccc(F)c(Cl)c3)c2cc1NC(=O)/C=C/CN1CCCCC1 ... 5.40

###

# target: panel of 255 wild-type kinases (Homo sapiens, UniProt P21802)
# Sequence (P21802 22-821): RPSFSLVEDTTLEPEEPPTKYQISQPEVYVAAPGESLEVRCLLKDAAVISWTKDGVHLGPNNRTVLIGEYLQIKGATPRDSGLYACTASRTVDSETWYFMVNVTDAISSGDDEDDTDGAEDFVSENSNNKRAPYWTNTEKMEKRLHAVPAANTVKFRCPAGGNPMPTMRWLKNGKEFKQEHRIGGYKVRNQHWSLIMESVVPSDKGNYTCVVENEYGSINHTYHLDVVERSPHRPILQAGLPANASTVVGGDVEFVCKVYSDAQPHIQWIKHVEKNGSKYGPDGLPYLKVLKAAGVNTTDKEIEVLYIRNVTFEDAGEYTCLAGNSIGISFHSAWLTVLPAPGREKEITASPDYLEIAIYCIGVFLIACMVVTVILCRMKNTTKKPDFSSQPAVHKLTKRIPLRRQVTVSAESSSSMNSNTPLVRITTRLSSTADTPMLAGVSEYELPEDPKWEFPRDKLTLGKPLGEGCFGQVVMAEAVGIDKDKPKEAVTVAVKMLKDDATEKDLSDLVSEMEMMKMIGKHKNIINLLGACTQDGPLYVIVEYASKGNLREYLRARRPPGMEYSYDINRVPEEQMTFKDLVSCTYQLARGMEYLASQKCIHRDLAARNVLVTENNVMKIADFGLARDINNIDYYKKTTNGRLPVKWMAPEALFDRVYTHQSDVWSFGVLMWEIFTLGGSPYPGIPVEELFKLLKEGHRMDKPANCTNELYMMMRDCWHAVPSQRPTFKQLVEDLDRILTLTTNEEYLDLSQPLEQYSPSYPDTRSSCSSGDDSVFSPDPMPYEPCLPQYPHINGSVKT
# test.method.notes: Kinase panel profiling at 1 µmol/L (MSA or IMAP), percentage inhibition
# Format: biochemical
# measurement.conditions: kinase FGFR2; 1 µmol/L single concentration; read-out: %-inhibition at 1 µmol/L, FGFR2
Please enter Y where inhibition at 1 µM is greater than or equal to 60%, and N where it is lower.

CCn1c(=O)c(-c2cc(NC(=O)Nc3ccccc3)c(F)cc2Br)cc2cnc(NC)cc21 [ripretinib] ... Y
COc1cc2ncnc(Nc3ccc(F)c(Cl)c3)c2cc1NC(=O)/C=C/CN1CCCCC1 [dacomitinib] ... N
Cn1cc(-c2cc3c(N4CCN(c5ncc([C@@](C)(N)c6ccc(F)cc6)cn5)CC4)ncnn3c2)cn1 [avapritinib] ... Y
CN1CCN(c2ccc(C(=O)Nc3n[nH]c4ccc(Cc5cc(F)cc(F)c5)cc34)c(NC3CCOCC3)c2)CC1 [entrectinib] ... Y
Cn1cnc2c(F)c(Nc3ccc(Br)cc3Cl)c(C(=O)NOCCO)cc21 [selumetinib] ... N
CO[C@]1(C(=O)N[C@@H](C)c2ccc(-n3cc(F)cn3)nc2)CC[C@H](c2nc(C)cc(Nc3cc(C)[nH]n3)n2)CC1 [pralsetinib] ... Y
Cc1nc(NC(=O)N2CCC[C@H]2C(N)=O)sc1-c1ccnc(C(C)(C)C(F)(F)F)c1 [alpelisib] ... N
Cc1cc(Nc2ncnc3ccc(NC4=NC(C)(C)CO4)cc23)ccc1Oc1ccn2ncnc2c1 [tucatinib] ... N
C=CC(=O)N1CCC([C@@H]2CCNc3c(C(N)=O)c(-c4ccc(Oc5ccccc5)cc4)nn32)CC1 [zanubrutinib] ... N
COc1ccc(CN2C3CC2CN(c2ccc(-c4cc(OCC(C)(C)O)cn5ncc(C#N)c45)cn2)C3)cn1 [selpercatinib] ... Y
Cn1cnc2c(F)c(Nc3ccc(Br)cc3F)c(C(=O)NOCCO)cc21 [binimetinib] ... N
O=C(Nc1cnn2ccc(N3CCC[C@@H]3c3cc(F)ccc3F)nc12)N1CC[C@H](O)C1 [larotrectinib] ... N
C[C@H](Nc1ncnc2nc[nH]c12)c1cc2cccc(Cl)c2c(=O)n1-c1ccccc1 [duvelisib] ... N
C[C@H]1Oc2cc(cnc2N)-c2c(nn(C)c2C#N)CN(C)C(=O)c2ccc(F)cc21 [lorlatinib] ... N
COC(=O)N[C@@H](C)CNc1nccc(-c2cn(C(C)C)nc2-c2cc(Cl)cc(NS(C)(=O)=O)c2F)n1 [encorafenib] ... N
FC(F)(F)c1ccc(CNc2ccc(Cc3c[nH]c4ncc(Cl)cc34)cn2)cn1 [pexidartinib] ... Y
